method-summary: Pharmacokinetic study of DPTM in rats after i.v., i.m. and p.o. administration (HPLC-MS/MS, non-compartmental)
Format: in vivo
cond: Sprague-Dawley, rat, plasma, po, 75 mg/kg, rat serum, p.o., 75 mg/kg; read-out: AUC0→t
outcome-measure: AUC(0-t) (ng·h/mL)
The figure you give is taken to be in ng·h/mL; do not add the unit.

Entry under test: C=CC1(C)CC(OC(=O)CSc2nc(N)cc(N)n2)C2(C)C(C)CCC3(CCC(=O)C32)C(C)C1O (stereo not shown) . Its AUC(0-t) was 1500

---

method-summary: Pharmacokinetic study of DPTM in rats after i.v., i.m. and p.o. administration (HPLC-MS/MS, non-compartmental)
Format: in vivo
cond: Sprague-Dawley, rat, plasma, po, 10 mg/kg, rat serum, p.o., 10 mg/kg; read-out: Cmax
outcome-measure: Cmax
# do not omit the unit; it follows the number

Entry C=CC1(C)CC(OC(=O)CSc2nc(N)cc(N)n2)C2(C)C(C)CCC3(CCC(=O)C32)C(C)C1O (stereo not shown) [DPTM] ; Cmax = 100 ng/mL
